# target_or_test_system: PI3K α (Homo sapiens (Human))
# Sequence (P42336 whole entry): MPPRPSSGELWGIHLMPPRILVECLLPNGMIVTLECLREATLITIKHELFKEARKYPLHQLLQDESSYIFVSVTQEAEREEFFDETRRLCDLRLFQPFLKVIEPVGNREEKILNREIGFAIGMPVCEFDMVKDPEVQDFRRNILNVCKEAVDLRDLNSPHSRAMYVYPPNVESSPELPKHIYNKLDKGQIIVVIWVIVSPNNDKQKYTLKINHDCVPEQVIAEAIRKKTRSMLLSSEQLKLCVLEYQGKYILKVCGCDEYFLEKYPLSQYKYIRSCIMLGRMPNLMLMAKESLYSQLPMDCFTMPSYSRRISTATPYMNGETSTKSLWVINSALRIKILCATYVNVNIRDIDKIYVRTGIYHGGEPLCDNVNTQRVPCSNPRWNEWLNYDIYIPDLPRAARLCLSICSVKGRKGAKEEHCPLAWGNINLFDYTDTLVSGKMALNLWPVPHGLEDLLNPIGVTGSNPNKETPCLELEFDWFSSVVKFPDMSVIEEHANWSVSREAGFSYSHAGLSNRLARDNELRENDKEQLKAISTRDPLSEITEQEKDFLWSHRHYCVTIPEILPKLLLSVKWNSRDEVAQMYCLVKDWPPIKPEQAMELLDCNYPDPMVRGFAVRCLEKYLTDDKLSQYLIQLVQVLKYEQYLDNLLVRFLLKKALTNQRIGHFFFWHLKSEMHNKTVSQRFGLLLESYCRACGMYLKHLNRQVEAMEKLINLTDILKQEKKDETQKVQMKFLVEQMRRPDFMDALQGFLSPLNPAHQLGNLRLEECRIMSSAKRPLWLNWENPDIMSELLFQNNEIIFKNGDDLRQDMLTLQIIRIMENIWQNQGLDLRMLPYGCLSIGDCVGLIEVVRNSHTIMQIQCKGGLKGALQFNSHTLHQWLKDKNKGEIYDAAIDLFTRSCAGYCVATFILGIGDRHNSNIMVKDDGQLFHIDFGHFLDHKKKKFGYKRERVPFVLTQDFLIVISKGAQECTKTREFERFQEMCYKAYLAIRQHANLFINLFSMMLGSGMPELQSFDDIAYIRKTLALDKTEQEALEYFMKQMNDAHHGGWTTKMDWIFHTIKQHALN
# Sequence (P27986 whole entry partner): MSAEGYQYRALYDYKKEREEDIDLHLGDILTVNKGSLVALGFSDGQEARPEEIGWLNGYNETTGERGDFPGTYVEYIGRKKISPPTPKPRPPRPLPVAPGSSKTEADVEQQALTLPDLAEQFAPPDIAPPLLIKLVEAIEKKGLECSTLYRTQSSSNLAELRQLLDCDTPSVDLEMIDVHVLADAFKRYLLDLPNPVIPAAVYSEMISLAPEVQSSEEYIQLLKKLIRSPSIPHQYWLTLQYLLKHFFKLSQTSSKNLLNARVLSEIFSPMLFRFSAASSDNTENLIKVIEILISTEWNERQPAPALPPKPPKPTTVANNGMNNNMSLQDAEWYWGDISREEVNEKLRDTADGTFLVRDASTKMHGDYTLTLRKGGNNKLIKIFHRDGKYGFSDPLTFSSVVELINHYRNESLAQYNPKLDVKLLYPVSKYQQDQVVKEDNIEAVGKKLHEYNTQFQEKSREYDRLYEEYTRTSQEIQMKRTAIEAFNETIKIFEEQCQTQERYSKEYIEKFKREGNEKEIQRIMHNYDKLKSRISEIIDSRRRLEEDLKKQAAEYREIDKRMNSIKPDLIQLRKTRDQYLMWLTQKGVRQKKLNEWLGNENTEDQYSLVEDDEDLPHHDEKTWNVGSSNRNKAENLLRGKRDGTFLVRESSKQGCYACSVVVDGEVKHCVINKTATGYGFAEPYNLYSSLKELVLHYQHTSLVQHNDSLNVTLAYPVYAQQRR
measured_attribute: IC50

IN: Quick check: IC50 of CC1CN(C(=O)c2cnc3ccc(-c4ccc5oc(N)nc5c4)cn23)CC(C)N1 (centres unmarked) ?
OUT: < 10 µM

IN: Now consider Cc1cc(-c2ccc3nc(N)oc3c2)cn2c(C(=O)N3CCOCC3)cnc12 .
OUT: < 1 µM

IN: Now consider O=C(c1cnc2ccc(-c3cnc(Cl)c(NS(=O)(=O)c4ccccc4F)c3)cn12)N1CCOCC1 .
OUT: < 0.1 µM

IN: Now consider Nc1nc2cc(-c3ccc4ncc(C(=O)N5CCC(N6CC(F)(F)C6)C5)n4c3)ccc2o1 (centres unmarked) .
OUT: < 1 µM

IN: Now consider CNc1noc2cc(-c3ccc4ncc(C(=O)N5CCOCC5)n4c3)ccc12 .
OUT: < 10 µM

IN: Now consider CN1CCN(C(=O)c2cnc3ccc(-c4ccc5nc(N)sc5c4)cn23)CC1 .
OUT: < 10 µM

IN: Now consider Nc1nc2cccc(-c3ccc4ncc(C(=O)N5CCOCC5)n4c3)c2o1 .
OUT: < 1 µM

IN: Now consider Nc1nc2cc(-c3ccc4nc(N)sc4c3)ccc2o1 .
OUT: < 1 µM
